# SYSTEM NAME: B1R receptor of the rat (Rattus norvegicus)
# Construct: host or cells: CHO K1 cells (Chinese hamster ovary), stably transfected
# EXPERIMENT NOTES: Functional study on the bradykinin receptor 1 (B1R), FLIPR Ca2+ assay, rB1R cells
# Type: cell-based
# MEASUREMENT PARAMETERS: CHO-K1, test substance 10 μM, agonist Des-Arg9-bradykinin 100 nM, % inhibition compared with the maximum achievable inhibition, read-out: B1R Antagonism, rat [10 μM] % Inhibition
Where a name gives a salt, the structure may show the parent alone.
MEASUREMENT LABEL: inhibition at 10 µM (%)
Record the value in %, omitting the unit from your answer.

For the molecule shown here, Cc1cc(S(=O)(=O)N2CCCCC2COCC(=O)N2CCN(C3CCN(C)CC3)CC2)c(C)cc1Cl (stereo not drawn) [Example 114, dihydrochloride] , give the reported inhibition at 10 µM. 103

Please answer likewise for CN1CCC(N2CCN(C(=O)COCC3CCCCN3S(=O)(=O)c3ccccc3C(F)(F)F)CC2)CC1 (stereo not drawn) 100

Please answer likewise for COc1cc(C)c(S(=O)(=O)N2c3ccccc3CCC2COCC(=O)N2CCN(C3CCN(C)CC3)CC2)c(C)c1 (stereo not drawn) 99.8

Please answer likewise for O=C(COCC1CCCN1S(=O)(=O)c1c(Cl)cccc1Cl)NCc1ccc(CN2CCCC2)cc1 (stereo not drawn) 98.7

Please answer likewise for O=C(COCC1CCCN1S(=O)(=O)c1ccc(Cl)c(Cl)c1)N1CCN(CCN2CCCCC2)CC1 (stereo not drawn) 13.2

Please answer likewise for COc1cc(C)c(S(=O)(=O)N2CCCC2COCC(=O)N2CCC(c3ccncc3)C2)c(C)c1 (stereo not drawn) 84.9

Please answer likewise for CN1CCC(N2CCN(C(=O)COCC3CCCCN3S(=O)(=O)c3cccc4c(N(C)C)cccc34)CC2)CC1 (stereo not drawn) [Example 158, dihydrochloride] 99.3

Please answer likewise for COc1cc(C)c(S(=O)(=O)N2CCCCC2COCC(=O)N2CCN(c3nc(-c4ccccc4)cs3)CC2)c(C)c1 (stereo not drawn) 101

Please answer likewise for COc1cc(C)c(S(=O)(=O)N2CCCCC2COCC(=O)N2CCCCC2CCN2CCOCC2)c(C)c1 (stereo not drawn) 107

Please answer likewise for Cc1cccc(Cl)c1S(=O)(=O)N1CCC[C@H]1COCC(=O)N1CCN(CC2CCN(C)CC2)CC1 [Example 163, dihydrochloride] 101

Please answer likewise for COc1cc(C)c(S(=O)(=O)N2CCCCC2COCC(=O)NCCN2CCN(Cc3ccccc3)CC2)c(C)c1 (stereo not drawn) 95.6

Please answer likewise for COc1cc(C)c(S(=O)(=O)N2CCCCC2COCC(=O)N2CCC(N3CCn4ncnc4C3)CC2)c(C)c1 (stereo not drawn) 98.6

Please answer likewise for O=C(COCC1CCCCN1S(=O)(=O)c1c(Cl)cccc1Cl)N1CCC(c2ccncc2)C1 (stereo not drawn) 86

Please answer likewise for COc1cc(C)c(S(=O)(=O)N2CCCC[C@H]2COCC(=O)N2CCN(C3CCN(C)CC3)CC2)c(C)c1 101

Please answer likewise for COc1cc(C)c(S(=O)(=O)N2CCCC2COCC(=O)N2CCN(c3cccc(Cl)c3)CC2)c(C)c1 (stereo not drawn) 101

###

# SYSTEM NAME: B1R receptor of the rat (Rattus norvegicus, UniProt P97583)
# Construct: host or cells: CHO K1 cells (Chinese hamster ovary), stably transfected
# Sequence (P97583 whole entry): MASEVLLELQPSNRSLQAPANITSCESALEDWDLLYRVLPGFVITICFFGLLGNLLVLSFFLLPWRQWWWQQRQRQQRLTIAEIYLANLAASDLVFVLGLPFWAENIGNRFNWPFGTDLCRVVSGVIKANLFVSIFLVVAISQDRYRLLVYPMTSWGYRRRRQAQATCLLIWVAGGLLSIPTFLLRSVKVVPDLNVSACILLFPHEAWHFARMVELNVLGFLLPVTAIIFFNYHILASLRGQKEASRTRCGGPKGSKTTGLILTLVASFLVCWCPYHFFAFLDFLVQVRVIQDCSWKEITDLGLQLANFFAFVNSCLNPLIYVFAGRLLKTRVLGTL
# EXPERIMENT NOTES: Functional study on the bradykinin receptor 1 (B1R), FLIPR Ca2+ assay, rB1R cells
# Type: cell-based
# MEASUREMENT PARAMETERS: CHO-K1, test substance 10 μM, agonist Des-Arg9-bradykinin 100 nM, % inhibition compared with the maximum achievable inhibition, read-out: B1R Antagonism, rat [10 μM] % Inhibition
Exercise: state measured inhibition at 10 µM for each of the compounds provided.
Record the value in %, omitting the unit from your answer.

For the compound shown here, O=C(COCC1CCCCN1S(=O)(=O)c1c(Cl)cc(Cl)cc1Cl)N(C1CC1)C1CCN(Cc2ccccc2)CC1 (stereo not shown) [Example 255] , give the reported inhibition at 10 µM. 101

Please answer likewise for COc1cc(C)c(S(=O)(=O)N2CCCC2COCC(=O)N2CCN(Cc3ccccc3)CC2)c(C)c1 (stereo not shown) [Example 460] 101

Please answer likewise for COc1cc(C)c(S(=O)(=O)N2CCCCC2COCC(=O)N2CCN(c3cccc(C(F)(F)F)c3)CC2)c(C)c1 (stereo not shown) [Example 509] 102

Please answer likewise for CCn1nccc1NC(=O)COCC1CCCCN1S(=O)(=O)c1c(C)cc(OC)cc1C (stereo not shown) [Example 257] 99.9

Please answer likewise for CCN(Cc1ccncc1)C(=O)COCC1CCCCN1S(=O)(=O)c1c(C)cc(OC)cc1C (stereo not shown) [Example 510] 102

Please answer likewise for O=C(COCC1CCCCN1S(=O)(=O)c1c(Cl)cccc1Cl)N1CCN(c2ccc(Cl)c(Cl)c2)CC1 (stereo not shown) [Example 404] 98.5

Please answer likewise for COc1cc(C)c(S(=O)(=O)N2CCCCC2COCC(=O)N2CCN(CCc3ccccc3)CC2)c(C)c1 (stereo not shown) [Example 373] 98.8
